# Experiment Summary: Inhibition of FAO
Quantity Measured: pIC50
A value of pIC50 is the negative decimal logarithm of a concentration given in moles per litre.

According to the records, this molecule CCCCCCCCCCCCCCCC(=O)N[C@H](CC(=O)[O-])C[N+](C)(C)C [PALMITOYLAMINOCARNITINE] displays pIC50 of 7.30

====

# Study System: Carnitine O-palmitoyltransferase 1, muscle isoform (Homo sapiens, UniProt Q92523)
# Sequence (Q92523 whole entry, canonical isoform): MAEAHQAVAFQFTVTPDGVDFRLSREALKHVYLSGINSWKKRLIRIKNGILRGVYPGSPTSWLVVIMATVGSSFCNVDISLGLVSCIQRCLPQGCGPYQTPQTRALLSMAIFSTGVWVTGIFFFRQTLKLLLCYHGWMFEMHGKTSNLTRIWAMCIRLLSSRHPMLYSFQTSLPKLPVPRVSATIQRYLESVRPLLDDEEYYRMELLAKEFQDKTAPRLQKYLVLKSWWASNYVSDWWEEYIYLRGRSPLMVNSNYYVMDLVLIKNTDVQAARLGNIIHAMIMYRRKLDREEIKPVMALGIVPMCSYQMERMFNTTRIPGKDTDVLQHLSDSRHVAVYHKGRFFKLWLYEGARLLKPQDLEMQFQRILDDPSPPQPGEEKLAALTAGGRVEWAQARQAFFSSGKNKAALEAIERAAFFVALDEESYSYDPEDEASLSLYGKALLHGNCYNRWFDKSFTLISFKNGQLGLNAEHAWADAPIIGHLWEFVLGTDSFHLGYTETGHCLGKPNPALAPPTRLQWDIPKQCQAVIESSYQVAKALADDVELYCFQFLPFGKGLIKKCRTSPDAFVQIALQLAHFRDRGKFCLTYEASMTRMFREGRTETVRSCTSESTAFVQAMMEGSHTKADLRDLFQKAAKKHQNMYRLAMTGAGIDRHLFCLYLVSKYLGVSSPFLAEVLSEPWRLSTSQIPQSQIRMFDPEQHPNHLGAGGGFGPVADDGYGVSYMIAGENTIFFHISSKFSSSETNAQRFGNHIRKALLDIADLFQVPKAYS
# Experiment Summary: Inhibition of CPT1B in liver mitochondria
Quantity Measured: pIC50
A value of pIC50 is the negative decimal logarithm of a concentration given in moles per litre.

According to the records, this compound O=C(O)C(=O)c1ccc(O)cc1 displays pIC50 of 3.29

====

# Study System: Carnitine O-palmitoyltransferase 1, liver isoform (Homo sapiens)
# Sequence (P50416 whole entry, canonical isoform): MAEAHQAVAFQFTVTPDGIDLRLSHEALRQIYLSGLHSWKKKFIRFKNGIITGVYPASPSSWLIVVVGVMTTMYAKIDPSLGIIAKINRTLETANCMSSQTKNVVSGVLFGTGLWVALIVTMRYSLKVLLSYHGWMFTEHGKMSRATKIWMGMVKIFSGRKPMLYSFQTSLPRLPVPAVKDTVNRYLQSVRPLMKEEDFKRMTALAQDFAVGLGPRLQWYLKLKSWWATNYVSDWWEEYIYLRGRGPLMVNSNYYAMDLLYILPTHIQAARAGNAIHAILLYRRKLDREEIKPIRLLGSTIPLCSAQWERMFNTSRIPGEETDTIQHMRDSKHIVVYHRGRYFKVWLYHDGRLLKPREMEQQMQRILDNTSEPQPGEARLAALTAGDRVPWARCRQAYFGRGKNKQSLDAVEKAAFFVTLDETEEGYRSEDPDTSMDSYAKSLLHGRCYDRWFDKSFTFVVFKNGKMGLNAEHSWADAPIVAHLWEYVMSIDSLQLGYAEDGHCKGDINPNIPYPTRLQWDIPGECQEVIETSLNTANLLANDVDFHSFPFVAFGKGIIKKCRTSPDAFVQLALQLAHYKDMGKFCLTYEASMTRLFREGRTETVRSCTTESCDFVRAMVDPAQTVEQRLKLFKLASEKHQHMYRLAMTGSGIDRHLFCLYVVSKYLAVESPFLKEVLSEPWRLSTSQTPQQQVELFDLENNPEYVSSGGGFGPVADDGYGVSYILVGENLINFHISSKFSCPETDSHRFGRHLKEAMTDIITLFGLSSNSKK
# Experiment Summary: Inhibition of human CPT1A
Quantity Measured: IC50

Observe how each entry below is paired with its result.
INSERT INTO results (molecule_smiles, study_system, quantity_measured, endpoint_result) VALUES
  ('O=C(COc1ccccc1)N1CCCC[C@@H]1c1nc(-c2ccccn2)cs1', 'Carnitine O-palmitoyltransferase 1, liver isoform (Homo sapiens)', 'IC50', '20 nM'),
  ('O=C(NCc1cccs1)c1nn(Cc2cccc(C(F)(F)F)c2)c2ccccc12', 'Carnitine O-palmitoyltransferase 1, liver isoform (Homo sapiens)', 'IC50', '26 nM'),
  ('COc1ccc(CN2CCNCC2)c(OC)c1OC', 'Carnitine O-palmitoyltransferase 1, liver isoform (Homo sapiens)', 'IC50', '> 100000 nM');

Moving on to the next compound.
The value of IC50 recorded for CCCCCCCCCCCCCCNC(=O)N[C@H](CC(=O)[O-])C[N+](C)(C)C when tested on Carnitine O-palmitoyltransferase 1, liver isoform (Homo sapiens) reads 1050 nM
